Answer each item with its documented abundance fitness.
B1: Transcription factor SOX-4, residues 60 to 127; numbered along this chain, Q06945 (parent)
chain: KRPMNAFMVWSQIERRKIMEQSPDMHNAEISKRLGKRWKLLKDSDKIPFIREAERLRLKHMADYPDYK

Variants of: B1
Test: abundance fitness (aPCA) (normalised: wild type 0, dead -1); higher = more abundant; growth selection in yeast, the domain comes from the species named
Details: Homo sapiens
Answers are plain numbers.

As a guide, the following entries are already answered.
INSERT INTO assay_data (variant_designation, measurement) VALUES
  ('Y64T', 0.059),
  ('L41S', -0.779),
  ('R55H', -0.284),
  ('K46V', -0.798);

Please supply abundance fitness for each of the following items, keeping them in order.
1. R37K
2. W38F
3. E52W
4. R55K
5. R33C

Found:
1: 0.052; 2: -1.08; 3: -0.58; 4: -0.08; 5: 0.083

Please supply abundance fitness for each of the following items, keeping them in order.
1. A28W
2. R33A
3. D63E
4. L58I
5. D24K
6. G35P
7. Q21D

Found:
1: -0.242; 2: 0.121; 3: 0.044; 4: -0.132; 5: -0.141; 6: -0.496; 7: -0.346

Lookup: I have this variant here, "R55W" , and I need its recorded abundance fitness.
Found: -0.44
